Kindly find below IC50 information for Sodium-dependent noradrenaline transporter (Homo sapiens, UniProt P23975) taken from the literature.

| molecule | unitsLabel | qualifyingSign | IC50 |
| --- | --- | --- | --- |
| CNCCCC1Cc2ccccc2N(c2c(F)cccc2F)S1(=O)=O (single isomer, unassigned; 16e) | nM | = | 52 |
| CNCC[C@H](c1cccc(F)c1)N1C(=O)C2(CCCCC2)c2ccccc21 | nM | = | 26 |
| Clc1ccc(C(CC2CNC2)Oc2ccccc2)cc1Cl (stereo unspecified) | nM | = | 37.2 |
| Cc1ccc(C(O)c2ccccc2CN(C)C)c(N)c1 (stereo unspecified) | nM | > | 100 |
| Cc1ccc(N)c(-c2ccccc2CN(C)C)c1 | nM | > | 100 |
| O=C1NCC(c2ccc(Cl)c(Cl)c2)C1c1cccc(Cl)c1 (stereo unspecified) | nM | = | 384 |
| O=C(Nc1ccccc1-c1cn2c(CN3CCNCC3)csc2n1)c1cnc2ccccc2n1 | nM | = | 2470 |
| CNCCCC1Cc2ccccc2N(c2c(F)cccc2F)S1(=O)=O.Cl (single isomer, unassigned; 16f) | nM | = | 5 |
| c1ccc2c(c1)ccn2Cc1ccncc1 | nM | > | 20000 |
| CNC[C@@H](O)[C@H](c1cccc(F)c1)n1ccc2ccccc21 | nM | = | 11 |
| FC(F)(F)c1cc(COCC2(c3ccccc3)CCNCC2)cc(C(F)(F)F)c1 | nM | > | 1000 |

====

pIC50: −log10 of the molar value.
Compiled record: pIC50 values for UniProt:P23975 across several sources.
Classification field: enter 1 (yes) for pIC50 values not below 6, 0 (no) for values below it.

| compound | measuredOn | labelClass |
| --- | --- | --- |
| CNC[C@@H](O)[C@H](c1ccccc1F)n1ccc2ccccc21 | UniProt:P23975 | 1 (yes) |
| CNCC[C@H](c1ccccc1)n1c(=O)sc2ccccc21 | UniProt:P23975 | 1 (yes) |
| C=CCN(CC)C(=O)C1(c2ccccc2)C(CN)C1(C)C (racemic) | UniProt:P23975 | 0 (no) |
| O=C1NCC(c2ccccc2Cl)C1c1ccc(Cl)c(Cl)c1 (configuration not stated) | UniProt:P23975 | 0 (no) |
| O=C1NCC(c2ccc(Cl)cc2)C1c1cccc(Cl)c1 (configuration not stated) | UniProt:P23975 | 0 (no) |
| O=C1NCC(c2ccc(Cl)cc2)C1c1ccc(Cl)cc1 (configuration not stated) | UniProt:P23975 | 0 (no) |
| CN1CCN(C[C@@H](c2cccc(Cl)c2)C2(N)CCCCC2)CC1 | UniProt:P23975 | 1 (yes) |
| CC(C)C(=O)N(Cc1ccc(F)cc1Cl)[C@H]1CCNC1 | UniProt:P23975 | 1 (yes) |

====

What follows is literature data on IC50 for Sodium-dependent noradrenaline transporter (Homo sapiens).

| molecule | measuredOn | IC50 / nM |
| --- | --- | --- |
| CNCC[C@H](c1cccc(F)c1)N1C(=O)C(C)(C)c2cccc(F)c21 | Sodium-dependent noradrenaline transporter (Homo sapiens) | 14 |
| CCN(CC)C(=O)[C@@]1(c2ccc3c(c2)OCO3)C[C@H]1CN | Sodium-dependent noradrenaline transporter (Homo sapiens) | 12 |
| CNCC[C@@H](c1ccccc1)n1c(=O)n(-c2ccccc2)c2ccccc21 | Sodium-dependent noradrenaline transporter (Homo sapiens) | 215 |
| Cc1cn([C@@H](c2ccccc2)[C@@H](O)CN)c2ccccc12 (racemic) | Sodium-dependent noradrenaline transporter (Homo sapiens) | 321 |
